- experimentalTarget: T1, cell surface CD22 on Ramos (CD22+) cells (human, UniProt P20273 20-847)
- T1 construct: whole, on cells; also called CD22 on WSU-DLCL2, MHH-PREB-1 and Raji cells
- T1 sequence (looked up): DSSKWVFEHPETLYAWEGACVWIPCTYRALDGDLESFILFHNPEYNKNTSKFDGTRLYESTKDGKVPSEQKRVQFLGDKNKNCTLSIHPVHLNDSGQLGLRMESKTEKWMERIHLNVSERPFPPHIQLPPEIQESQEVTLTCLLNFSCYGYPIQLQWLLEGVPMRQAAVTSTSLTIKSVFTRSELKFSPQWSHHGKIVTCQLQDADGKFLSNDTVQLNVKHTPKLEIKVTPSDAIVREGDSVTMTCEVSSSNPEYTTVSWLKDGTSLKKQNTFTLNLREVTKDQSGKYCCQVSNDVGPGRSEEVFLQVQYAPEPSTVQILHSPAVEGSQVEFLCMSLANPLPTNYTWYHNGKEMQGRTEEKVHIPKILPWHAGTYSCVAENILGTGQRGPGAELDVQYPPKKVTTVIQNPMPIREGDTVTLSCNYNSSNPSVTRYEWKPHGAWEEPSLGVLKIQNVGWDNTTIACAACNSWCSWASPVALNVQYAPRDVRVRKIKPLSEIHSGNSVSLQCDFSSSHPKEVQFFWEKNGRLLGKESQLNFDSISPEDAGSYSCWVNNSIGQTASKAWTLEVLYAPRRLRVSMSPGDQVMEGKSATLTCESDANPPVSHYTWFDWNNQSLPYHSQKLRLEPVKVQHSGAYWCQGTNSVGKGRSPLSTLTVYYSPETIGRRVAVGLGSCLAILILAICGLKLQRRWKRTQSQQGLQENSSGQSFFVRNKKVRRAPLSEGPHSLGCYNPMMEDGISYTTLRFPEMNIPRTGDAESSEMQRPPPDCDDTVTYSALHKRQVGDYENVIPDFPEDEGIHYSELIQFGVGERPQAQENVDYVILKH
- assayOverview: flow cytometry, antibody titration on Ramos (CD22+) cells, AF488 anti-human IgG
measure: IC50

Short answer for MYT4424 (antibody, V domains shown, inotuzumab VH N31H+T59H+N103H; tie by order) VH: EVQLVQSGAEVKKPGASVKVSCKASGYRFTHYWIHWVRQAPGQGLEWIGGINPGNNYAHYRRKFQGRVTMTADTSTSTVYMELSSLRSEDTAVYYCTREGYGHYGAWFAYWGQGTLVTVSS VL: DVQVTQSPSSLSASVGDRVTITCRSSQSLANSYGNTFLSWYLHKPGKAPQLLIYGISNRFSGVPDRFSGSGSGTDFTLTISSLQPEDFATYYCLQGTHQPYTFGQGTKVEIK : IC50 was 0.115 nM
